- System: RPMI-8226 leukemia
- Method Description: NCI-60 one-dose screen, 48 h (100 = growth as untreated, 0 = no growth, -100 = all killed)
- Experimental Parameters: 10 µM
About 83,000 compounds went through this panel and 20% of them were active in at least one assay; those are over-represented in the sample as a whole.
Classification field: 1.0 = growth at or over 40%; 0.0 = growth under 40%.

Some solved entries appear below for comparison.
In [3]: df
Out[3]:
                                test_smiles  label_class
0  NCCNc1ccc2cc(-c3nc4ccccc4[nH]3)c(=O)oc2c1          1.0
1  COc1c(C)c(C)c(OC)c2c1[nH]c(=O)c1c3cccnc3cn21          1.0
2  CCOC(=O)c1cc2c(n1Cc1cccc(OC)c1)-c1oncc1CC2          0.0
3     CCOCC[P+](c1ccccc1)(c1ccccc1)c1ccccc1          0.0
4  Cc1cccc2c1O/C(=C\c1ncc([N+](=O)[O-])n1C)C2=O          0.0

Input: Check this molecule for growth at or above 40%: "CC(=O)/C(=C\c1ccc(Cl)cc1)c1ccccc1"
Output: 0.0

Input: Check this molecule for growth at or above 40%: "COC(=O)c1c(C)nc(Nc2nc3ccccc3s2)nc1-c1ccc(Cl)cc1Cl"
Output: 1.0

Input: Check this molecule for growth at or above 40%: "Cc1ccc(-c2cc(-c3cccc(Nc4ccnc5cc(Cl)ccc45)c3)nc3nc(N)[nH]c(=O)c23)cc1"
Output: 1.0

Input: Check this molecule for growth at or above 40%: "COc1ccc(Nc2nc(NCc3ccccc3)c3ccccc3n2)cc1"
Output: 1.0

Input: Check this molecule for growth at or above 40%: "CC1(C)CNC(=O)N1"
Output: 1.0

Input: Check this molecule for growth at or above 40%: "O=C(CCCC(=O)N/N=C/c1cc(Cl)ccc1O)N/N=C\c1cc(Cl)ccc1O"
Output: 0.0

====

- Tested on: OVCAR-8 ovarian
- Method Description: NCI-60 one-dose screen, 48 h
- Experimental Parameters: 10 µM
This is part of a sample that, as a whole, favours compounds with a hit. Of some 83,000 tested, about 20% had one in any assay. Activity calls are given as the source filed them. The calls were made as follows: active = growth percent below 10; inactive = the rest.
Answer with one of the outcomes given here: true (1) for active, false (0) for inactive

Some solved entries appear below for comparison.
>>> df
                                   compound      system_name  label_class
0        CCOC(=O)c1ccc(N(C=O)CCC(=O)CCl)cc1  OVCAR-8 ovarian     true (1)
1  CCN1CCN(c2nc(NNC(=O)c3cccc(OC)c3)nc(N3CCN(C(c4ccccc4)c4ccccc4)CC3)n2)CC1  OVCAR-8 ovarian    false (0)
2  N#C/C(=C/c1cc([N+](=O)[O-])ccc1Cl)C(N)=O  OVCAR-8 ovarian    false (0)
3  O=C1NN(c2ccccc2)C(c2cccnc2)=N/C1=C\c1cccnc1  OVCAR-8 ovarian    false (0)
4       Clc1cc(Cl)c(OCCCCCCN2CCNCC2)c(Cl)c1  OVCAR-8 ovarian    false (0)
5  O=c1oc2cc(OS(=O)(=O)C3CC3)ccc2c2c1CCCCCC2  OVCAR-8 ovarian    false (0)
6  c1ccc(COCC[P+](c2ccccc2)(c2ccccc2)c2ccccc2)cc1  OVCAR-8 ovarian     true (1)
7  CCOC(=O)Nc1ccc2c(c1)C(=O)N(CCOC)c1ccccc1O2  OVCAR-8 ovarian    false (0)
8  C[C@]12CC[C@H]3[C@@H](CC=C4C[C@@H](O)CC[C@@]43C)[C@@H]1CC[C@@H]2C(=O)C/C=N/O  OVCAR-8 ovarian    false (0)
9  O=C(N/N=c1/ccoc2cccnc12)N1CCN(c2ncccn2)CC1  OVCAR-8 ovarian    false (0)

Input: What was the test verdict on CCCCCCCCCCSC(=N)N (tested in a mixture with another compound) ?
Output: false (0)

Input: What was the test verdict on "O=S(=O)(NCCO)c1ccc(OCCOc2ccc(S(=O)(=O)NCCO)cc2)cc1" ?
Output: false (0)

Input: What was the test verdict on "COc1cc(CSc2nc3ccc(Cl)cc3c(=O)n2-c2ccccc2)cc(OC)c1OC" ?
Output: false (0)

Input: What was the test verdict on "C[C@@H]1N=C(c2ccc(Br)cc2)Nc2nc3ccccn3c2C1=O" ?
Output: false (0)
